# test.target: UniProtKB P00735
# assay.overview: Inhibition of bovine thrombin using D-Phe-Pip-Arg-p-NA as substrate by chromogenic assay
# stated.conditions: read-out: Ki
pKi: −log10 of the molar value.
observed.property: pKi

substance_smiles=COc1cc(COc2cccc(NC(=O)C3CCN(c4ccncc4)CC3)c2)cc(OC)c1 test_target="UniProtKB P00735" observed_property=pKi value_reported=7.08
substance_smiles=COc1ccc(COc2cccc(NC(=O)C3CCN(c4ccncc4)CC3)c2)cc1OC test_target="UniProtKB P00735" observed_property=pKi value_reported=7.51
substance_smiles=CS(=O)(=O)c1ccccc1COc1cccc(NC(=O)C2CCN(c3ccncc3)CC2)c1 test_target="UniProtKB P00735" observed_property=pKi value_reported=4.91

[1] O=C(Nc1cccc(OCc2ccc(F)cc2F)c1)C1CCN(c2ccncc2)CC1
[2] COc1ccc(COc2cccc(NC(=O)C3CCN(c4ccncc4)CC3)c2)cc1
Task: Compare 1 and 2 by numeric pKi and name the larger one. Refer to your chosen entry by its label in the reply.
Output: 2

---

# test.target: Neutrophil elastase (Homo sapiens, UniProt P08246)
# Sequence (P08246 whole entry): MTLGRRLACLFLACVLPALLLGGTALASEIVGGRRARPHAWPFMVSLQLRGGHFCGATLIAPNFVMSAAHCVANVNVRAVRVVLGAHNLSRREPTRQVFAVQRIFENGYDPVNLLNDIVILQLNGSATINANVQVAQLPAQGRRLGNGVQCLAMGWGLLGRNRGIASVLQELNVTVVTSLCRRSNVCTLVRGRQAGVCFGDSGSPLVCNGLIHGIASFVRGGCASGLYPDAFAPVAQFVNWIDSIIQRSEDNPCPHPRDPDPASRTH
# assay.overview: Inhibition of human neutrophil leukocyte elastase using N-(methoxysuccinyl)-Ala-Ala-Pro-Val-p-NA as substrate by chromogenic assay
observed.property: Ki (µM)

[I] O=C(Nc1cccc(OCc2cccc(F)c2)c1)C1CCN(c2ccncc2)CC1
[II] O=C(Nc1cccc(OCc2ccc(F)cc2)c1)C1CCN(c2ccncc2)CC1
Task: Could you tell me which of these two has the smaller Ki figure? First: I Second: II Response format: the label of the selected entry.
Output: I

---

# test.target: Prothrombin (Bos taurus)
# assay.overview: Inhibition of bovine thrombin using D-Phe-Pip-Arg-p-NA as substrate by chromogenic assay
# stated.conditions: read-out: Ki
pKi: −log10 of the molar value.
observed.property: pKi

[a] O=C(Nc1cccc(OCc2cc(F)cc(F)c2)c1)C1CCN(c2ccncc2)CC1
[b] O=C(Nc1cccc(OCc2ccc([N+](=O)[O-])cc2)c1)C1CCN(c2ccncc2)CC1
Task: Which one would you say has the larger pKi value: a , or b ? Provide the label of your selected option as the answer.
Output: a
(a: 7.20, b: 5.23)

[I] O=C(Nc1cccc(OCc2ccc3c(c2)OCO3)c1)C1CCN(c2ccncc2)CC1
[II] O=C(Nc1cccc(OCc2ccc(F)cc2)c1)C1CCN(Cc2ccncc2)CC1
Task: Looking at I and II , which one comes out lower in pKi terms? Mark your selection by writing its label.
Output: II

---

pKi: −log10 of the molar value.
Assay system Prothrombin (Homo sapiens, UniProt P00734); read-out recorded as pKi.
observed.property: pKi

substance_smiles=O=C(Nc1cccc(OCc2cccc(F)c2)c1)C1CCN(c2ccncc2)CC1 value_reported=7.80

[P] O=C(Nc1cccc(OCc2ccc(F)cc2)c1)C1CCN(c2ccncc2)CC1
[Q] O=C(Nc1cccc(OCc2cc(F)cc(F)c2)c1)C1CCN(c2ccncc2)CC1
Task: Looking at P and Q , which one comes out lower in pKi terms? Please reply using the label of the selected record.
Output: Q
(Q: 7.51, P: 7.85)

---

# assay.overview: Dissociation constant, pKa of the compound by potentiometric titration
# Type: physicochemical
observed.property: pKa

substance_smiles=CS(=O)(=O)c1ccc(COc2cccc(NC(=O)C3CCN(c4ccncc4)CC3)c2)cc1 value_reported=9.1

[P] O=C(Nc1cccc(OCc2ccccc2F)c1)C1CCN(c2ccncc2)CC1
[Q] O=C(Nc1cccc(OCc2ccc(F)cc2)c1)C1CCN(Cc2ccncc2)CC1
Task: Min pKa? P | Q Record your answer as the label of the chosen record.
Output: Q
(Q: 3.3, P: 9.2)

---

# test.target: Prothrombin (Bos taurus)
# assay.overview: Inhibition of bovine thrombin using D-Phe-Pip-Arg-p-NA as substrate by chromogenic assay
# stated.conditions: read-out: Ki
observed.property: Ki (µM)

Solved entries (count: 2):
substance_smiles=CN(C)Cc1ccc(COc2cccc(NC(=O)C3CCN(c4ccncc4)CC3)c2)cc1 result_unit=µM value_reported=8.19
substance_smiles=O=C(Nc1cccc(OCc2ccc(Br)cc2)c1)C1CCN(c2ccncc2)CC1 result_unit=µM value_reported=2.03

[A] O=C(Nc1cccc(COc2cccc(F)c2)c1)C1CCN(c2ccncc2)CC1
[B] Nc1ccc(COc2cccc(NC(=O)C3CCN(c4ccncc4)CC3)c2)cc1
Task: Between A and B , which one shows the smaller Ki number? Refer to your chosen item by its label in the answer.
Output: B
(B: 10 µM, A: 18.2 µM)

---

# test.target: Prothrombin (Bos taurus)
# assay.overview: Inhibition of bovine thrombin using D-Phe-Pip-Arg-p-NA as substrate by chromogenic assay
# stated.conditions: read-out: Ki
observed.property: Ki (µM)

substance_smiles=O=C(Nc1cccc(OCc2ccccc2)c1)C1CCN(c2ccncc2)CC1 observed_property=Ki value_reported=39.5
substance_smiles=COc1ccccc1COc1cccc(NC(=O)C2CCN(c3ccncc3)CC2)c1 observed_property=Ki value_reported=1.3
substance_smiles=O=C(Nc1cccc(OCc2cccc(Br)c2)c1)C1CCN(c2ccncc2)CC1 observed_property=Ki value_reported=20.9
substance_smiles=CS(=O)(=O)c1ccc(COc2cccc(NC(=O)C3CCN(c4ccncc4)CC3)c2)cc1 observed_property=Ki value_reported=0.124
substance_smiles=COc1cccc(COc2cccc(NC(=O)C3CCN(c4ccncc4)CC3)c2)c1 observed_property=Ki value_reported=1.15

[P] O=C(Nc1cccc(OCc2ccccc2F)c1)C1CCN(c2ccncc2)CC1
[Q] O=C(Nc1cccc(OCc2cccc([N+](=O)[O-])c2)c1)C1CCN(c2ccncc2)CC1
Task: Please indicate which entry, P or Q , has the lower recorded Ki value. To answer, give the label that identifies your chosen option.
Output: P

---

Ki values recorded for Coagulation factor X (Homo sapiens, UniProt P00742)
observed.property: Ki (µM)

[a] CS(=O)(=O)c1ccccc1COc1cccc(NC(=O)C2CCN(c3ccncc3)CC2)c1
[b] COc1ccc(COc2cccc(NC(=O)C3CCN(c4ccncc4)CC3)c2)cc1OC
[c] O=C(Nc1cccc(OCc2ccc(F)cc2F)c1)C1CCN(c2ccncc2)CC1
[d] CN(C(=O)C1CCN(c2ccncc2)CC1)c1cccc(OCc2cccc(F)c2)c1
Task: Place the items in sequence of falling Ki. // ordering of labels required in reply
Output: a, d, c, b
(a: 35.1 µM, d: 23.6 µM, c: 8.8 µM, b: 0.606 µM)

[A] O=C(Nc1cccc(OCc2ccccc2F)c1)C1CCN(c2ccncc2)CC1
[B] COc1ccccc1COc1cccc(NC(=O)C2CCN(c3ccncc3)CC2)c1
Task: Lower value for measured Ki? Options: A , B Pick one; state its label.
Output: A

---

# test.target: Chymotrypsinogen A (Bos taurus, UniProt P00766)
# assay.overview: Inhibition of bovine alpha-chymotrypsin using N-succinyl-Ala-Ala-Pro-Phe-p-NA as substrate by chromogenic assay
pKi: −log10 of the molar value.
observed.property: pKi

Some entries whose results are on file:
substance_smiles=O=C(Nc1cccc(OCc2cc(F)cc(F)c2)c1)C1CCN(c2ccncc2)CC1 test_target="Chymotrypsinogen A (Bos taurus, UniProt P00766)" value_reported=4.50
substance_smiles=O=C(Nc1cccc(OCc2ccccc2F)c1)C1CCN(c2ccncc2)CC1 test_target="Chymotrypsinogen A (Bos taurus, UniProt P00766)" value_reported=4.15

[A] COc1cc(COc2cccc(NC(=O)C3CCN(c4ccncc4)CC3)c2)cc(OC)c1
[B] O=C(Nc1cccc(OCc2ccc(F)cc2)c1)C1CCN(c2ccncc2)CC1
[C] O=C(Nc1cccc(OCc2cccc(F)c2)c1)C1CCN(c2ccncc2)CC1
Task: Provide the items ranked by increasing pKi. To answer, arrange all of the labels according to the requested order.
Output: B, A, C
(B: 4.15, A: 4.47, C: 5.18)

---

# assay.overview: Inhibition of bovine pancreatic trypsin using D-Phe-Pip-Arg-p-NA as substrate by chromogenic assay
# Design: species or system Bos taurus
observed.property: Ki (µM)

substance_smiles=COc1ccc(COc2cccc(NC(=O)C3CCN(c4ccncc4)CC3)c2)cc1OC observed_property=Ki value_reported=27
substance_smiles=O=C(Nc1cccc(OCc2ccccc2F)c1)C1CCN(c2ccncc2)CC1 observed_property=Ki value_reported=27

---

# assay.overview: Dissociation constant, pKa of the compound by potentiometric titration
# Type: physicochemical
observed.property: pKa

substance_smiles=COc1ccc(COc2cccc(NC(=O)C3CCN(c4ccncc4)CC3)c2)cc1OC observed_property=pKa value_reported=9.2
substance_smiles=O=C(Nc1cccc(OCc2cc(F)cc(F)c2)c1)C1CCN(c2ccncc2)CC1 observed_property=pKa value_reported=9.2
substance_smiles=O=C(Nc1cccc(OCc2ccc(F)cc2)c1)C1CCN(c2ccccn2)CC1 observed_property=pKa value_reported=8.5
substance_smiles=O=C(Nc1cccc(OCc2ccc(F)cc2)c1)C1CCNCC1 observed_property=pKa value_reported=9.8
